test protocol: Microsomal stability in mouse liver microsomes assessed as intrinsic clearance pretreated with compound upto 60 mins followed by NADPH addition and measured after 60 mins by LC/MS analysis
Format: ADME, Microsome
study conditions: time < 120 min, read-out: CLH
Answer n if microsomal CLint is under 2 µL/min/mg, and y if it is 2 µL/min/mg or more.

In: In plain terms: is recorded microsomal CLint at least 2 µL/min/mg for `O=C1O[C@@H](CO)CN1c1ccc(-c2ccc(/C=N/N3CCS(=O)(=O)CC3)nc2)c(F)c1` ?
Out: n

* * *

test protocol: Aqueous solubility of compound at pH 7.4 by LC-MS/MS analysis
Assay type: physicochemical
study conditions: buffer
Answer false (0) if solubility is under 20 µM, and true (1) if it is 20 µM or more.

| smiles string | category |
| --- | --- |
| O=C1O[C@@H](CO)CN1c1ccc(-c2ccc(/C=N/N3CCCCC3)nc2)c(F)c1 | false (0) |
| O=C1O[C@@H](CO)CN1c1ccc(-c2ccc(/C=N/N3CCOCC3)nc2)c(F)c1 | false (0) |
| CC(C)N/N=C/c1ccc(-c2ccc(N3C[C@H](CO)OC3=O)cc2F)cn1 | true (1) |

Let's switch to this molecule now.
In: In plain terms: is recorded solubility at least 20 µM for `CC(=O)NC[C@H]1CN(c2ccc(-c3ccc(/C=N/N4CCS(=O)(=O)CC4)nc3)c(F)c2)C(=O)O1` ?
Out: true (1)

* * *

Measured IC50 on Cytochrome P450 2C9 (Homo sapiens, UniProt P11712) follows.
Sequence (P11712 whole entry): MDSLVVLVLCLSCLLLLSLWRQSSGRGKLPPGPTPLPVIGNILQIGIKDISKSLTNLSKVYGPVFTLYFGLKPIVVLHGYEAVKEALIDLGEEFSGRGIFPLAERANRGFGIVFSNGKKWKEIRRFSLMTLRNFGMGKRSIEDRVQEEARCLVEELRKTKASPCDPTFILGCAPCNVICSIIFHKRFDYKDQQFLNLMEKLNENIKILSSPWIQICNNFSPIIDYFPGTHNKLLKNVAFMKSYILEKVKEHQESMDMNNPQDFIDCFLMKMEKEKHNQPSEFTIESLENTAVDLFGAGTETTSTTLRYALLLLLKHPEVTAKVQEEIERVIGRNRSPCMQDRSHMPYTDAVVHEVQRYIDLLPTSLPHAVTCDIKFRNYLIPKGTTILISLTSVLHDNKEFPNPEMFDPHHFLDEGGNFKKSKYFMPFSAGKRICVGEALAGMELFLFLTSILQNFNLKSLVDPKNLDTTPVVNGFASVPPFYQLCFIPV

Solved entries (count: 4):
| molecule | reported result |
| --- | --- |
| O=C1O[C@@H](CO)CN1c1ccc(-c2ccc(/C=N/N3CCCCC3)nc2)c(F)c1 | 5.38 µM |
| CC(=O)NC[C@H]1CN(c2ccc(N3CCOCC3)c(F)c2)C(=O)O1 [LINEZOLID] | > 30 µM |
| CC(C)N/N=C/c1ccc(-c2ccc(N3C[C@H](CO)OC3=O)cc2F)cn1 | > 30 µM |
| O=C1O[C@@H](CO)CN1c1ccc(-c2ccc(/C=N/N3CCS(=O)(=O)CC3)nc2)c(F)c1 | > 30 µM |

In: Look at this molecule and give its reported IC50. `O=C1O[C@@H](CO)CN1c1ccc(-c2ccc(/C=N/N3CCOCC3)nc2)c(F)c1`
Out: > 30 µM

* * *

Kindly supply the reported remaining at 1 h values for the records listed here.
test protocol: Stability in monkey plasma assessed as parent compound remaining at 37 degreeC measured upto 60 mins by HPLC analysis
Assay type: ADME, cell-free, Macaca mulatta
study conditions: rhesus monkey, read-out: Stability
Numbers only, in %.

Solved entries (count: 4):
| smiles string | remaining at 1 h / % |
| --- | --- |
| CC(=O)NC[C@H]1CN(c2ccc(N3CCOCC3)c(F)c2)C(=O)O1 | 105 |
| O=C1O[C@@H](CO)CN1c1ccc(-c2ccc(/C=N/N3CCOCC3)nc2)c(F)c1 | 103 |
| O=C1O[C@@H](CO)CN1c1ccc(-c2ccc(/C=N/N3CCS(=O)(=O)CC3)nc2)c(F)c1 | 103 |
| O=C1O[C@@H](CO)CN1c1ccc(-c2ccc(/C=N/N3CCCCC3)nc2)c(F)c1 | 105 |

# ---- query compound ----
In: Look at this compound and give its reported remaining at 1 h. `CC(C)N/N=C/c1ccc(-c2ccc(N3C[C@H](CO)OC3=O)cc2F)cn1`
Out: 106
